Values were extracted from patent US8134015B2.

Overview of reported IC50 across a group of molecules:
Target or system: UniProt Q06495
Sequence (Q06495 whole entry): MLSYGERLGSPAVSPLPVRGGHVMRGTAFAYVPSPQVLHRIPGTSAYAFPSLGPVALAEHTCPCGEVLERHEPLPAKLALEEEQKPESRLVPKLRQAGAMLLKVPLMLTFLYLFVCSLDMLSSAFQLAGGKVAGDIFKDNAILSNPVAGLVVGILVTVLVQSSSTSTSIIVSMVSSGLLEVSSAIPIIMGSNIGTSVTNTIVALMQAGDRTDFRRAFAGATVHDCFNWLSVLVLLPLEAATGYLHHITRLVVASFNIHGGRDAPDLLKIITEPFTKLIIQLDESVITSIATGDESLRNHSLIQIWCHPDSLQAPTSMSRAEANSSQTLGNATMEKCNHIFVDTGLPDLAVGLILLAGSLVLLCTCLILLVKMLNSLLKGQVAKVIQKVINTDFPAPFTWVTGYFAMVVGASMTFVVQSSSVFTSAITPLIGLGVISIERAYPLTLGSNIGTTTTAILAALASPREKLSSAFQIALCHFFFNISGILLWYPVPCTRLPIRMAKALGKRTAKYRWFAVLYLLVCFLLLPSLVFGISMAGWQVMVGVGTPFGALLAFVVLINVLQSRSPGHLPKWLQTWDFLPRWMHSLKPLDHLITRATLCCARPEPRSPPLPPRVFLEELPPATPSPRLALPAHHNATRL
Method notes: Sodium-dependent phosphate uptake of Xenopus oocytes which expressed NaPi-2a (32P)
Test context: phosphate uptake, Xenopus oocytes expressing human NaPi-2a; five concentration levels

Molecule: CCN(CC)CCN(C)Cc1cccc(C(=O)Nc2ccc(N3CCCCC3)cc2C(=O)N/N=C/c2cccc(F)c2)c1
Target or system: UniProt Q06495
IC50: < 1 µM
//
Molecule: Cc1ccc(/C=N/NC(=O)c2cc(Cl)ccc2NC(=O)c2cccc(CSCC(O)CO)c2)cc1 (stereo not shown)
Target or system: UniProt Q06495
IC50: 2.3 µM
//
Molecule: O=C(Nc1sc2c(c1C(=O)N/N=C/c1ccc(F)cc1)CCCC2)c1cccc(CN2CCC(CO)CC2)c1
Target or system: UniProt Q06495
IC50: 7.53 µM
//
Molecule: Cc1ccc(/C=N/NC(=O)c2cc(Cl)ccc2NC(=O)c2cccc(CSCC(O)CO)c2)cc1C (stereo not shown)
Target or system: UniProt Q06495
IC50: 1.41 µM
//
Molecule: Cc1ccc(/C=N/NC(=O)c2c(NC(=O)c3cccc(CN(CC(C)O)CC(C)O)c3)sc3ccccc23)cc1 (stereo not shown)
Target or system: UniProt Q06495
IC50: 8.46 µM
//
Molecule: O=C(Nc1ccc(Br)cc1C(=O)N/N=C/c1ccc(Cl)c(C(F)(F)F)c1)c1ccc(CSc2ccncc2)cc1
Target or system: UniProt Q06495
IC50: < 3 µM
//
Molecule: Cc1csc(NC(=O)c2cccc(CN3CCN(c4ncccn4)CC3)c2)c1C(=O)N/N=C/c1cccc(F)c1
Target or system: UniProt Q06495
IC50: < 3 µM
//
Molecule: O=C(Nc1ccc(N2CCCCC2)cc1C(=O)N/N=C/c1ccc(F)cc1)c1cccc(CSCCO)c1
Target or system: UniProt Q06495
IC50: 4.45 µM
//
Molecule: CCN(CC)CCNCc1cccc(C(=O)Nc2sc3c(c2C(=O)N/N=C/c2ccc(Cl)c(C(F)(F)F)c2)CCC3)c1
Target or system: UniProt Q06495
IC50: 18.3 µM
//
Molecule: CCN(CC)CCN(C)Cc1cccc(C(=O)Nc2ccc(N3CCCCC3)cc2C(=O)N/N=C/c2ccc(C)cc2)c1
Target or system: UniProt Q06495
IC50: 1.6 µM
//
Molecule: Cc1ccc(/C=N/NC(=O)c2c(NC(=O)c3cccc(CN4CCC(CO)CC4)c3)sc3c2CCCC3)cc1
Target or system: UniProt Q06495
IC50: 15.6 µM
//
Molecule: O=C(Nc1sc2c(c1C(=O)N/N=C/c1ccc(F)cc1)CCC2)c1cccc(CN2CCC(CO)CC2)c1
Target or system: UniProt Q06495
IC50: 31.4 µM
//
Molecule: Cc1ccc(/C=N/NC(=O)c2cc(F)ccc2NC(=O)c2cccc(CN(CC(C)O)CC(C)O)c2)cc1 (stereo not shown)
Target or system: UniProt Q06495
IC50: 7.84 µM
//
Molecule: Cc1ccc(/C=N/NC(=O)c2cc(N3CCCCC3)ccc2NC(=O)c2cccc(CSCCC(=O)O)c2)cc1
Target or system: UniProt Q06495
IC50: 15.1 µM
//
Molecule: O=C(Nc1ccc(Br)cc1C(=O)N/N=C/c1ccc(F)cc1)c1ccc(CSCCO)cc1
Target or system: UniProt Q06495
IC50: 4.42 µM
//
Molecule: Cc1csc(NC(=O)c2cccc(CN(C)C)c2)c1C(=O)N/N=C/c1ccc(Cl)c(C(F)(F)F)c1
Target or system: UniProt Q06495
IC50: 8.19 µM
//
Molecule: O=C(Nc1sc2c(c1C(=O)N/N=C/c1ccc(F)cc1)CCCC2)c1cccc(CN2CCC(O)CC2)c1
Target or system: UniProt Q06495
IC50: 1.34 µM
//
Molecule: Cc1ccc(/C=N/NC(=O)c2c(C)csc2NC(=O)c2cccc(CN(C)C)c2)cc1C
Target or system: UniProt Q06495
IC50: 18 µM
//
Molecule: COc1ccc(/C=N/NC(=O)c2cc(N3CCCCC3)ccc2NC(=O)c2cccc(CSCC(O)CO)c2)cc1 (stereo not shown)
Target or system: UniProt Q06495
IC50: 1.69 µM
//
Molecule: Cc1ccc(/C=N/NC(=O)c2cc(N3CCCCC3)ccc2NC(=O)c2cccc(CN3CCN(CCO)CC3)c2)cc1C
Target or system: UniProt Q06495
IC50: 1.94 µM
//
Molecule: Cc1ccc(/C=N/NC(=O)c2c(C)csc2NC(=O)c2cccc(CN(CCO)CCO)c2)cc1C
Target or system: UniProt Q06495
IC50: < 3 µM
//
Molecule: O=C(Nc1ccc(N2CCCCC2)cc1C(=O)N/N=C/c1cccc(F)c1)c1cccc(CSCC(O)CO)c1 (stereo not shown)
Target or system: UniProt Q06495
IC50: < 1 µM

====

Target or system: rat NaPi-2b (Rattus norvegicus)
Method notes: Sodium-dependent phosphate uptake of Xenopus oocytes which expressed NaPi-2b (32P)
Test context: Xenopus oocytes expressing rat NaPi-2b, 32P radioactive phosphorus; read-out: IC50 (phosphate uptake inhibitory activity)
pIC50: −log10 of the molar value.
Quantity: pIC50

Compound: CC(O)CN(Cc1cccc(C(=O)Nc2sc3c(c2C(=O)N/N=C/c2cccc(F)c2)CCCC3)c1)CC(C)O (stereo not drawn)
Assay result: > 6.00

Compound: O=C(Nc1cc2ccccc2cc1C(=O)N/N=C/c1cccc(F)c1)c1cccc(CN2CCN(CCO)CC2)c1
Assay result: > 5.52

Compound: O=C(Nc1ccc(N2CCCCC2)cc1C(=O)N/N=C/c1ccc(Cl)c(C(F)(F)F)c1)c1cccc(CSCC(O)CO)c1 (stereo not drawn)
Assay result: > 6.00

====

Reported IC50 is given for each of the following compounds.
Target or system: rat NaPi-2b (Rattus norvegicus, UniProt Q9JJ09)
Sequence (Q9JJ09 whole entry): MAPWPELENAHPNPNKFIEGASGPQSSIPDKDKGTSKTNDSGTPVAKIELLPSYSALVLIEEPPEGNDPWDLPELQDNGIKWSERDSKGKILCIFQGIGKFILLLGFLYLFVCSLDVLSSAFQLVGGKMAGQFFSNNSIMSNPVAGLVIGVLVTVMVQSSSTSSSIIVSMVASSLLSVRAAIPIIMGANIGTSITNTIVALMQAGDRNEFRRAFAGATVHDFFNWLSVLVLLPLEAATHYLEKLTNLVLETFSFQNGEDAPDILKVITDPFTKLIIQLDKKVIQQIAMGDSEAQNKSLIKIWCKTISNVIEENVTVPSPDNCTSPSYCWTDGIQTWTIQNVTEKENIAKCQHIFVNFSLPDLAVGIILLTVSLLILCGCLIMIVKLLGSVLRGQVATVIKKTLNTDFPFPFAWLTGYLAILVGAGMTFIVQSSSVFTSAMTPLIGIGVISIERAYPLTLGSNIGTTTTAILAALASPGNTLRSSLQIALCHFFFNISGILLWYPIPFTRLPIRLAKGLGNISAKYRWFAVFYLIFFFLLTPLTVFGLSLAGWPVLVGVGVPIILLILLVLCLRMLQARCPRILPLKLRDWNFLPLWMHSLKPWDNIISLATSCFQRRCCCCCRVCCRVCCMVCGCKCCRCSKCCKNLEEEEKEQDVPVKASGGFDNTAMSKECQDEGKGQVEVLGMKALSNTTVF
Method notes: Sodium-dependent phosphate uptake of Xenopus oocytes which expressed NaPi-2b (32P)
Test context: Xenopus oocytes expressing rat NaPi-2b, 32P radioactive phosphorus; read-out: IC50 (phosphate uptake inhibitory activity)
Protocol: Pharmacological Test Example 1 Experiment of Sodium-Dependent Phosphate Uptake of Xenopus oocytes which Expressed NaPi-2b Degenerate primers were prepared from sequences of mouse NaPi-2b disclosed in Hilfiker H. et al., Pro Natl Acad Sci USA, 95 (24): 14564-14569, […] and sequences of human and rat NaPi-2a disclosed in Magagnin S. et al., Proc Natl Aca Sci USA, 90 (13): 5979-5983, 1993. RNA was extracted from the rat small intestine using ISOGEN; manufactured by NIPPON GENE CO., LTD (Japan). […]

Compound: CCN(CC)CCN(C)Cc1cccc(C(=O)Nc2sc3c(c2C(=O)N/N=C/c2ccc(C)c(C)c2)CCCC3)c1 [Compound 609]
Unit annotation: µM
Relation symbol: <
IC50: 0.3

Compound: O=C(Nc1sc2c(c1C(=O)N/N=C/c1ccc(F)cc1)CCC2)c1cccc(CN2CCC(CO)CC2)c1 [Compound 818]
Unit annotation: µM
Relation symbol: =
IC50: 7.38

Compound: Cc1cc(/C=N/NC(=O)c2cc(Br)ccc2NC(=O)c2ccncc2)oc1C [Compound 221]
Unit annotation: µM
Relation symbol: =
IC50: 9.51

Compound: CCN(CC)CCOc1ccc(NC(=O)c2ccc(OC)c(OC)c2)c(C(=O)N/N=C/c2ccc(F)cc2)c1 [Compound 140]
Unit annotation: µM
Relation symbol: =
IC50: 74.2

Compound: CCSCCNCc1ccc(C(=O)Nc2ccc(Br)cc2C(=O)N/N=C/c2cccc(F)c2)cc1 [Compound 768]
Unit annotation: µM
Relation symbol: =
IC50: 10.6

Compound: Cc1ccc(/C=N/NC(=O)c2cc(Br)ccc2NC(=O)c2ccc(CN3CCC(N4CCCCC4)CC3)cc2)cc1 [Compound 309]
Unit annotation: µM
Relation symbol: =
IC50: 15.1

Compound: CCN(CC)CCN(C)Cc1cccc(C(=O)Nc2ccc(OCCCCF)cc2C(=O)N/N=C/c2ccc(C)c(C)c2)c1 [Compound 1059]
Unit annotation: µM
Relation symbol: =
IC50: 0.43

Compound: Cc1ccc(/C=N/NC(=O)c2cc(Br)ccc2NC(=O)c2cccc(CS(=O)(=O)CCO)c2)cc1 [Compound 676]
Unit annotation: µM
Relation symbol: <
IC50: 3

Compound: Cc1ccc(/C=N/NC(=O)c2cc(F)ccc2NC(=O)c2cccc(CN(CC(C)O)CC(C)O)c2)cc1C (stereo not drawn) [Compound 985]
Unit annotation: µM
Relation symbol: <
IC50: 3

====

Target or system: rat NaPi-2b (Rattus norvegicus)
Method notes: Sodium-dependent phosphate uptake of Xenopus oocytes which expressed NaPi-2b (32P)
Test context: Xenopus oocytes expressing rat NaPi-2b, 32P radioactive phosphorus; read-out: IC50 (phosphate uptake inhibitory activity)

Test smiles: Cc1ccc(/C=N/NC(=O)c2cc(N3CCCCC3)ccc2NC(=O)c2cccc(CNCCN(CCO)CCO)c2)cc1C
IC50: 1.65 µM
--
Test smiles: O=C(Nc1ccc(Br)cc1C(=O)N/N=C/c1ccc(Cl)c(C(F)(F)F)c1)c1cccc(CS(=O)(=O)CCO)c1
IC50: < 3 µM
--
Test smiles: Cc1ccc(C=NNC(=O)c2cc(Cl)ccc2NC(=O)c2cccc(CS(=O)(=O)CCO)c2)cc1C
IC50: < 3 µM
